Each recorded value in this set is attributed to patent US8022177B2.

molecular target: T1, Cav3.1 (Homo sapiens, UniProt O43497); assay: Whole-cell patch clamp of Cav3.1 dependent LVA calcium current in HEK-293/Cav3.1 cells transiently transfected with γ subunits (Example 1); type: cell-based; settings: Table 2
T1 construct: expressed in transfected cells; host or cells: HEK-293, stably transfected
T1 sequence (O43497 whole entry): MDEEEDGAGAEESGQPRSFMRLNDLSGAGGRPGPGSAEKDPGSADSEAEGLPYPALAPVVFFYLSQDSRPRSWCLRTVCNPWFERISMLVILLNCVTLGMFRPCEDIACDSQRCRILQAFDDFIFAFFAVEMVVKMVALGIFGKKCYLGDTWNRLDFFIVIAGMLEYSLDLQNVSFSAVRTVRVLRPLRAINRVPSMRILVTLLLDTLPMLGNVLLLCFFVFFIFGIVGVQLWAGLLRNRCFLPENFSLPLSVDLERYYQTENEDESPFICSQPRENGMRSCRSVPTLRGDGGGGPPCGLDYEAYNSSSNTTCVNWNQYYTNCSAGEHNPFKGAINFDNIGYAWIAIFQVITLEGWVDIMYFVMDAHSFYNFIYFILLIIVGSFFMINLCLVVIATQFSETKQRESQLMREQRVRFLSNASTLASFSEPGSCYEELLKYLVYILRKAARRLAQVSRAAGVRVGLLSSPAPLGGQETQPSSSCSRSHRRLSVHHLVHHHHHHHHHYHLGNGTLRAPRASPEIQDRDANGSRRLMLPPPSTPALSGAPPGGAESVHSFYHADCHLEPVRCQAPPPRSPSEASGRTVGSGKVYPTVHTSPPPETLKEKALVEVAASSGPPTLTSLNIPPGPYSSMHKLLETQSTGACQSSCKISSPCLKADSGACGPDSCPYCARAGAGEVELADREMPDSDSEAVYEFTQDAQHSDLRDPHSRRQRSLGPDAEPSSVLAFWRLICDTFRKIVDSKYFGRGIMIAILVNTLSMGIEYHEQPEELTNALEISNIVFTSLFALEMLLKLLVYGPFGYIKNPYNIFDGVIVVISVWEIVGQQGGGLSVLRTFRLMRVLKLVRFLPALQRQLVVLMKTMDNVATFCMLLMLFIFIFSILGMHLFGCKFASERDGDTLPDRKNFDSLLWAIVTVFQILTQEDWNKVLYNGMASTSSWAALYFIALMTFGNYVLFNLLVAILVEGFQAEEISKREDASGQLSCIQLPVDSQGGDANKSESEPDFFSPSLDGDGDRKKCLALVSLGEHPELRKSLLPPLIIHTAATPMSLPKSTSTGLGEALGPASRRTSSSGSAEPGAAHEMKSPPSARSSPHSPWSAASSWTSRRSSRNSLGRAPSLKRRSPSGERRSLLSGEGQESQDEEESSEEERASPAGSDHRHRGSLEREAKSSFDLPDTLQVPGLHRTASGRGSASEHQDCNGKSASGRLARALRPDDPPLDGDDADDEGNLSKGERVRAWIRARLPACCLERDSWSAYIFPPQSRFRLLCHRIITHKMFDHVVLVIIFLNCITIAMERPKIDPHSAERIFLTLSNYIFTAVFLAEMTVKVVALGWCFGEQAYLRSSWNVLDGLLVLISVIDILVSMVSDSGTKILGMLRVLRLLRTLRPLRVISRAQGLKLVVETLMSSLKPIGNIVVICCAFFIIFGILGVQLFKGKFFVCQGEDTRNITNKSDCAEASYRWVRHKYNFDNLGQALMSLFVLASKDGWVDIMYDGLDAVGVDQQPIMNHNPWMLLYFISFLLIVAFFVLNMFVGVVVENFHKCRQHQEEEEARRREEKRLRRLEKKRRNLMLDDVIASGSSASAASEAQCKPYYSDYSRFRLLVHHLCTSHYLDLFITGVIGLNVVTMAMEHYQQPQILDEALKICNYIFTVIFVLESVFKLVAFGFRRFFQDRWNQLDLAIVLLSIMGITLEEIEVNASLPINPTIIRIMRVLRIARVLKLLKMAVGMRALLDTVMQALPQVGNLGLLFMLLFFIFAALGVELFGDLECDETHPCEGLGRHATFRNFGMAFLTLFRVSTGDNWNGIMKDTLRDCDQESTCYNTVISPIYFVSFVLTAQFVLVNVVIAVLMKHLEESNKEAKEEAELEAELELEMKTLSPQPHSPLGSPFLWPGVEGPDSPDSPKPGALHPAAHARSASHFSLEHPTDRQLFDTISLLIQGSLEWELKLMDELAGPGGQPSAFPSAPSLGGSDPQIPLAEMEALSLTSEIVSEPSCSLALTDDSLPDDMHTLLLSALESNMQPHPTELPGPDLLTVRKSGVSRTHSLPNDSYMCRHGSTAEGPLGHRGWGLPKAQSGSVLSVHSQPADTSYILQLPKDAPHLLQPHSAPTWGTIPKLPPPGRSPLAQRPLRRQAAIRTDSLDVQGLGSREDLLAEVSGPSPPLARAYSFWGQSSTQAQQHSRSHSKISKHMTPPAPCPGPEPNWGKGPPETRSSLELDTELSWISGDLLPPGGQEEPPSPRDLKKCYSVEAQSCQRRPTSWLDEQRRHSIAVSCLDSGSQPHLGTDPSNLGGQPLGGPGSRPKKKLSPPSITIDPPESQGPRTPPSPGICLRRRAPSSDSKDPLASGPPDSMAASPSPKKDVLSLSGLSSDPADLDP
Measured Metric: Deactivation tau @ −100 mV, Fast

Quote Deactivation tau @ −100 mV, Fast reported for γ6L: rat calcium channel γ6 subunit, long isoform (AF361343), SEQ ID NO:48 (protein, listed as Rattus norvegicus) MMWSNFFMQEEDRRRTAVGRRRAQEQQNLGLTPEREGKIKLGLLVAIVGATLAVLAVGTEFWVELNTYKTNGSAVCEAAHLGLWKVCIKRLWQADVPAGRETCGPAELPGEANCTYFKFFTTGENAHIFQRTTKKEVNLAAAVIAVLGLTAMALGCLCVIMVLSKGAEFLLRLGAVCFGLSGLLLFVSLEVFRHSVRALLQGVNPETPPAPRLAYEYSWSLGCGVGAGLILLLGGVCFLLLTLPSWPWRSLCPKRGGPTA please. 1.54 ± 0.48 (n = 4) ms
